system: Staphylococcus aureus; assay: Antibacterial activity against gram-positive Staphylococcus aureus ATCC 3591 at 5 mg/ml incubated overnight by agar well diffusion method; type: functional; conditions: read-out: DIZ
Listing: zone of inhibition at 5000 µg/mL of selected molecules
Dear colleague, please return just the value in mm, with no unit written.

{"MOLECULE": "CCCCCCCCCCCCC(O)CN(CCO)CC(O)COC[C@H]1O[C@@H]2OC(C)(C)O[C@@H]2[C@H]2OC(C)(C)O[C@H]21 (mixture of isomers)", "STUDY_TARGET": "Staphylococcus aureus", "VALUE_UNITS": "mm", "RESULT_VALUE": 20}
{"MOLECULE": "CCCCCCCCC(O)CN(CCO)CC(O)COC[C@H]1O[C@@H]2OC(C)(C)O[C@@H]2[C@H]2OC(C)(C)O[C@H]21 (mixture of isomers)", "STUDY_TARGET": "Staphylococcus aureus", "VALUE_UNITS": "mm", "RESULT_VALUE": 16}
{"MOLECULE": "CCCCCCCCCCCCNCCCNCC(O)COC[C@H]1O[C@@H]2OC(C)(C)O[C@@H]2[C@H]2OC(C)(C)O[C@H]21 (mixture of isomers)", "STUDY_TARGET": "Staphylococcus aureus", "VALUE_UNITS": "mm", "RESULT_VALUE": 20}

Query: Value wanted: zone of inhibition at 5000 µg/mL (Staphylococcus aureus) of entry CCCCCCCCCCNCCCNCC(O)COC[C@H]1O[C@@H]2OC(C)(C)O[C@@H]2[C@H]2OC(C)(C)O[C@H]21 (mixture of isomers)
Reply: 12

Query: Value wanted: zone of inhibition at 5000 µg/mL (Staphylococcus aureus) of entry CCCCCCCCCCN(CCO)CC(O)COC[C@H]1O[C@@H]2OC(C)(C)O[C@@H]2[C@H]2OC(C)(C)O[C@H]21 (mixture of isomers)
Reply: 20

Query: Value wanted: zone of inhibition at 5000 µg/mL (Staphylococcus aureus) of entry CCCCCCCCCCCCCCN(CCO)CC(O)COC[C@H]1O[C@@H]2OC(C)(C)O[C@@H]2[C@H]2OC(C)(C)O[C@H]21 (mixture of isomers)
Reply: 18
